# system tested: human Siglec-7 on primary human monocyte-derived dendritic cells (human, UniProt Q9Y286 19-467)
# Sequence (Q9Y286 19-467): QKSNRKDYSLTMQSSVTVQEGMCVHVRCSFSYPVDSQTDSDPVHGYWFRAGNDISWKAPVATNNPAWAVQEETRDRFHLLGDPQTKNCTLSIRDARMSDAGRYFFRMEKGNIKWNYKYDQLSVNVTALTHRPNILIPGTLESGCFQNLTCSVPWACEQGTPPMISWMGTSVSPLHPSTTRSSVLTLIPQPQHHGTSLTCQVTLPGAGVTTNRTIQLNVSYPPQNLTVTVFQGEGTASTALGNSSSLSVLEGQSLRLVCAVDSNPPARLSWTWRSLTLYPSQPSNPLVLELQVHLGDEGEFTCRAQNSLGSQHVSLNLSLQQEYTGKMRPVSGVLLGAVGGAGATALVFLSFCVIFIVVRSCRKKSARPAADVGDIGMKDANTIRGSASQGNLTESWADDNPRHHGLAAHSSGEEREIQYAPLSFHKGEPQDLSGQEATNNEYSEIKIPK
# assay text: cell-based or functional assay
Here the recorded Fold increase in potency compared to Chimeric Ab is given for each entry.
metric: Fold increase in potency compared to Chimeric Ab (fold)

binder	units text	numeric value
S7AB-H8.3 (antibody, V domains shown) VH: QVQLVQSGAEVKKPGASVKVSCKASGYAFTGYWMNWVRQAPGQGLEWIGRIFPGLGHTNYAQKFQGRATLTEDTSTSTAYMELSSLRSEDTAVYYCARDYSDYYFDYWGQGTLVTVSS VL: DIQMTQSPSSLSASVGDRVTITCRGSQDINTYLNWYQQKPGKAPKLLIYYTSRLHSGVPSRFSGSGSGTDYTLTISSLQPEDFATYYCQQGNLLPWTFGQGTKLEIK	fold	11.5
S7AB-H8.42 (antibody, V domains shown) VH: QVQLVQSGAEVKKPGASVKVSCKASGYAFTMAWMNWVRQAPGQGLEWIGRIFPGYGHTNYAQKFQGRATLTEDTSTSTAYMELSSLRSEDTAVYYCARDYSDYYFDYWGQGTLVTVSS VL: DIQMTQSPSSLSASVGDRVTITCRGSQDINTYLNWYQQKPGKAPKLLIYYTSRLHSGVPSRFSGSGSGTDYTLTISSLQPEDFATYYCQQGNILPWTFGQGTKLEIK	fold	16.4
S7AB-H8.35.1 (antibody, V domains shown) VH: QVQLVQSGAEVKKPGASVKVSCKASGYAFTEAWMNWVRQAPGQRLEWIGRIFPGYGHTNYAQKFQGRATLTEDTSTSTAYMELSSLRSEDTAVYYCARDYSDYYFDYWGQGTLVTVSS VL: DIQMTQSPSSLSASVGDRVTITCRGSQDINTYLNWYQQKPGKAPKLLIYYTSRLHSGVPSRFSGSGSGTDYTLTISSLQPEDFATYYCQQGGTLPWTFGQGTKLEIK	fold	5.9
S7AB-H8.7 (antibody, V domains shown) VH: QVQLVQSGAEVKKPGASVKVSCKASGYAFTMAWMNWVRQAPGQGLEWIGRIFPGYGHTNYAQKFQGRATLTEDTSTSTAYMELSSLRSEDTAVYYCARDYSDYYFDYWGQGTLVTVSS VL: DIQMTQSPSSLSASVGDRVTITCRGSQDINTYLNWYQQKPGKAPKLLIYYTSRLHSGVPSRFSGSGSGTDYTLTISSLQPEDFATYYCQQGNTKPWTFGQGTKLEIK	fold	12.1
S7AB-H8.6 (antibody, V domains shown) VH: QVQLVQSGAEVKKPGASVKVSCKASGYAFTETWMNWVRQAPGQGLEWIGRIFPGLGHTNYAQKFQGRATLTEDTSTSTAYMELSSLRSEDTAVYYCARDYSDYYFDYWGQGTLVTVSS VL: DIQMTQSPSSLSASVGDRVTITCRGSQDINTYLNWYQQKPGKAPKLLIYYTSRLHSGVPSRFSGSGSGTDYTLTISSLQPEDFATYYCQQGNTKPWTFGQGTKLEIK	fold	6.6
S7AB-H8.36 (antibody, V domains shown) VH: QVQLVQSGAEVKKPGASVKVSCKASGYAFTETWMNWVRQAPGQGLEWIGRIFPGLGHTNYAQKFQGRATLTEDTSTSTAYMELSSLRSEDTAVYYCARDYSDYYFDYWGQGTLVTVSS VL: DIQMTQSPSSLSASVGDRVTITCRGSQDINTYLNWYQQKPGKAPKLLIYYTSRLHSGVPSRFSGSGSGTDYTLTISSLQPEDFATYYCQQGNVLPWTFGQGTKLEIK	fold	8.2
S7AB-H8.24 (antibody, V domains shown) VH: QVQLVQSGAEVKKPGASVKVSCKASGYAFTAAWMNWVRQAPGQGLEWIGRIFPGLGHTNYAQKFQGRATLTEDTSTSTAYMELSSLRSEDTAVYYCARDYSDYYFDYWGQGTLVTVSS VL: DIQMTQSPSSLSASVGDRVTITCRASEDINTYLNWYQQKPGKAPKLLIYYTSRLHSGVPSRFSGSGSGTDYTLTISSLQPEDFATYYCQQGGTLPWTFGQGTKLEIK	fold	8
S7AB-H8.44.1 (antibody, V domains shown) VH: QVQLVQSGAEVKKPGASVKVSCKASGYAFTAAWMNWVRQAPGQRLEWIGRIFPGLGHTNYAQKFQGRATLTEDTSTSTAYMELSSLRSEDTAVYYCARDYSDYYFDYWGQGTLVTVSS VL: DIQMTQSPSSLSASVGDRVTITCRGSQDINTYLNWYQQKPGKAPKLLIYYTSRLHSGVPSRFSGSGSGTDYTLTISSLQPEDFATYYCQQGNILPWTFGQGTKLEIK	fold	14.7
S7AB-H8.13 (antibody, V domains shown) VH: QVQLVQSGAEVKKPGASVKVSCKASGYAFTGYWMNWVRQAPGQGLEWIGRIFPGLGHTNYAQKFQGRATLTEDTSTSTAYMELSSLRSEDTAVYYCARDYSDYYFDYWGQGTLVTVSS VL: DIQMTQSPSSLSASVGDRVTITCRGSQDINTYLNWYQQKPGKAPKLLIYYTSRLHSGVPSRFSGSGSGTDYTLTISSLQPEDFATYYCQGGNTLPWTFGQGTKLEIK	fold	0.5
S7AB-H8.18 (antibody, V domains shown) VH: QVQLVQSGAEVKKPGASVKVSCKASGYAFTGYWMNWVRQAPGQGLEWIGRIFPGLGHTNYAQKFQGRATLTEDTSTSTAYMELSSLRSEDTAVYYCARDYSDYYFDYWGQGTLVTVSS VL: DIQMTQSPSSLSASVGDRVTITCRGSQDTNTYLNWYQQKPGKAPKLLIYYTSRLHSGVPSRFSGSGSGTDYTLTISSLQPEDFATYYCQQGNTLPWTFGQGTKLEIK	fold	15.2
